Recorded IC50 for the following compounds
system name: 6-phosphofructo-2-kinase/fructose-2,6-bisphosphatase 2 (Homo sapiens)
Sequence (O60825 whole entry): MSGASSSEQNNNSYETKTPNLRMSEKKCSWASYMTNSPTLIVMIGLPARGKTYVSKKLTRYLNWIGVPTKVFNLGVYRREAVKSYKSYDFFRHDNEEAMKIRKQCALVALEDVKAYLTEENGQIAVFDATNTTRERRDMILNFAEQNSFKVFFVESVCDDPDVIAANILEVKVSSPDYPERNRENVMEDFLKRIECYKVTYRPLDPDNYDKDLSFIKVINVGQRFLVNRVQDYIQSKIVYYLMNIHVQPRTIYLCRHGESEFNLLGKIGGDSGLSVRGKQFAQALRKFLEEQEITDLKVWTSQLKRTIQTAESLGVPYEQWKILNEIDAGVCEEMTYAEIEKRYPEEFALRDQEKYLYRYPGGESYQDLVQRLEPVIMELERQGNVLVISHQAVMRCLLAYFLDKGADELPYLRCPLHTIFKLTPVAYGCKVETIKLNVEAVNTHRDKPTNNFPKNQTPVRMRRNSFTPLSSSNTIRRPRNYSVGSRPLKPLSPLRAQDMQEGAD
protocol text: Inhibition of recombinant human PFKFB2 using fructose 6 phosphate as substrate assessed as ADP generation after 1 hr by ADP Glo assay

// worked examples, IC50 included
{"columns": ["smiles repr", "IC50"],
 "data": [
  ["Cn1cc(-c2c[nH]c3ccc(Oc4ccc(NC(=O)[C@@H]5CCCN5)cc4)cc23)cn1", "3.57 µM"],
  ["CCn1cc(C#N)c2cc(Oc3ccc(NC(=O)CNC)cc3)ccc21", "24.9 µM"],
  ["CCn1cc(C#N)c2cc(Oc3ccc(NC(=O)[C@@H]4CCCN4)cc3)ccc21", "1.82 µM"],
  ["CCn1cc(C#N)c2cc(Oc3ccc(NC(=O)[C@@H]4CCC(=O)N4)cc3)ccc21", "23.7 µM"],
  ["CC(C)Cn1cc(C#N)c2cc(S(=O)(=O)c3ccc(NC(=O)[C@@H]4CCCN4)cc3)ccc21", "> 100 µM"],
  ["N#Cc1c(N)[nH]c2ccc(Oc3ccc(NC(=O)[C@H](N)CO)cc3)cc12", "> 100 µM"]
]}

Task item: Observed IC50 on 6-phosphofructo-2-kinase/fructose-2,6-bisphosphatase 2 (Homo sapiens) for N#Cc1cn(Cc2ccccc2)c2ccc(Oc3ccc(NC(=O)[C@@H]4CCCN4)cc3)cc12 , please.
Reply: 0.188 µM

Task item: Observed IC50 on 6-phosphofructo-2-kinase/fructose-2,6-bisphosphatase 2 (Homo sapiens) for N#Cc1c[nH]c2ccc(Oc3ccc(NC(=O)CN)cc3)cc12 , please.
Reply: 63.2 µM

Task item: Observed IC50 on 6-phosphofructo-2-kinase/fructose-2,6-bisphosphatase 2 (Homo sapiens) for N#Cc1cn(-c2ccccc2)c2ccc(Oc3ccc(NC(=O)[C@@H]4CCCN4)cc3)cc12 , please.
Reply: 0.374 µM

Task item: Observed IC50 on 6-phosphofructo-2-kinase/fructose-2,6-bisphosphatase 2 (Homo sapiens) for CCn1c(N)c(C#N)c2cc(Oc3ccc(NC(=O)CN)cc3)ccc21 , please.
Reply: 9.18 µM

Task item: Observed IC50 on 6-phosphofructo-2-kinase/fructose-2,6-bisphosphatase 2 (Homo sapiens) for CC(C)Cn1c(N)c(C#N)c2cc(Oc3ccc(NC(=O)CN)cc3)ccc21 , please.
Reply: 2.52 µM

Task item: Observed IC50 on 6-phosphofructo-2-kinase/fructose-2,6-bisphosphatase 2 (Homo sapiens) for N#Cc1c(N)n(Cc2ccccc2)c2ccc(Oc3ccc(NC(=O)CN)cc3)cc12 , please.
Reply: 1.48 µM

Task item: Observed IC50 on 6-phosphofructo-2-kinase/fructose-2,6-bisphosphatase 2 (Homo sapiens) for CCn1cc(C#N)c2cc(Oc3ccc(NC(=O)CN(C)C)cc3)ccc21 , please.
Reply: 76.1 µM

Task item: Observed IC50 on 6-phosphofructo-2-kinase/fructose-2,6-bisphosphatase 2 (Homo sapiens) for CC(C)Cn1cc(C#N)c2cc(Cc3ccc(NC(=O)[C@@H]4CCCN4)cc3)ccc21 , please.
Reply: 1.45 µM

Task item: Observed IC50 on 6-phosphofructo-2-kinase/fructose-2,6-bisphosphatase 2 (Homo sapiens) for N#Cc1cn(CC2CCOCC2)c2ccc(Oc3ccc(NC(=O)[C@@H]4CCCN4)cc3)cc12 , please.
Reply: 0.429 µM

* * *

protocol text: Aqueous solubility of the compound at pH 7.4
Assay type: physicochemical
setup conditions: buffer
measurement label: solubility (µM)
Provide the reading as a plain figure in µM.

Task item: Given the entry CC(C)Cn1cc(C#N)c2cc(Oc3ccc(NC(=O)[C@@H]4CCCN4)cc3)ccc21 , report its measured solubility.
Reply: 48
